ASSAY_SYSTEM: aspartyl proteases, in particular, beta-secretase
PROCEDURE_TEXT: Ki of the compounds listed in Tables 1 and 2 (no method described)
Format: biochemical
STATED_CONDITIONS: Table 1, compounds of formula Ia, W is -(CH2)n-
PROPERTY_LABEL: pKi
The meaning of pKi here: minus log10 of the concentration in molar units.

| SUBSTANCE_SMILES | ASSAY_SYSTEM | pKi |
| --- | --- | --- |
| CC(C)CN([C@@H](CCCCNC(=O)CCc1ccccc1)C(=O)O)S(=O)(=O)c1ccc([N+](=O)[O-])cc1 | aspartyl proteases, in particular, beta-secretase | 7.47 |

Kindly note the recorded pKi for CC(C)CN([C@@H](CCCCNC(=O)CCc1c[nH]c2ccccc12)C(=O)O)S(=O)(=O)c1ccc(N)cc1 , which is 8.00

The measured pKi associated with CC(C)CN([C@@H](CCCCNC(=O)CCc1cccc(N)c1)C(=O)O)S(=O)(=O)c1ccc(N)cc1 reads 7.69
